# Study System: Galanin receptor type 3 (Homo sapiens) (UniProt O60755)
# Sequence (O60755 1-299 limits assumed): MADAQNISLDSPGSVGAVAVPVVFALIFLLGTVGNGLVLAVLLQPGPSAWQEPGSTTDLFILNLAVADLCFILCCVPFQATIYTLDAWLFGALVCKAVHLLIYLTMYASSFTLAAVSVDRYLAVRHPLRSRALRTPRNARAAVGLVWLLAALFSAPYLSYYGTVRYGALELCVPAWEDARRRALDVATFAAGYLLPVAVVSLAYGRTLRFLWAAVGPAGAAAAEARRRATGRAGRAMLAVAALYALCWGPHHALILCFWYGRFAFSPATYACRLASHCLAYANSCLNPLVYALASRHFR
# Experimental Protocol: GalR3 antagonists in HEK293 cells, primary screen, cell-based, fluorescence readout (AID 651719);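 also: forskolin and galanin both at EC90 stimulate the cells; cAMP rise reported by CNG channel membrane potential dye signal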
# Setup Conditions: HEK293 GalR3-CNG cAMP membrane potential fluorescence; at 3 µM; galR3 body fused to GalR1 C-terminus
Screen size: about 360,000 compounds; about 1,600 (0.44%) were called active.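 The calls were made as follows: active = inhibition above the screen-wide average plus 3 SD (cut at about 13% in these data); inactive = the rest.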 For the sample, actives were picked, then their nearest neighbours and some compounds at random.
Just give me one of these, please: Y = active, N = inactive

Here's what some known entries look like.
INSERT INTO measurements (compound, class_label) VALUES
  ('CSc1nc(N(C)NC(=O)c2cccc(C)c2)c2ccccc2n1', 'Y'),
  ('Nc1[nH]c(C(=O)c2ccc(Br)cc2)c(-c2ccc3c(c2)OCO3)c1C(=O)NCCc1c[nH]c2ccccc12', 'N'),
  ('COc1ccc(-c2cc(C(F)(F)F)nc(S(C)(=O)=O)n2)cc1OC', 'Y'),
  ('C=CCN1C(=O)N(Cc2ccccc2)c2ccccc2S1(=O)=O', 'N'),
  ('Nc1ncnc2c1ncn2[C@@H]1O[C@H](C(=O)N2CCSC2)[C@@H](O)[C@H]1O', 'N');

Hi team, can someone confirm the assay call for O=C(NCc1ccccc1)[C@H]1CCCN1C(=O)[C@@H]1CCCN1C(=O)c1ccc(Cl)cc1Cl ? N

Hi team, can someone confirm the assay call for Cc1occc(=O)c1OCc1ccc(F)cc1 ? N

Hi team, can someone confirm the assay call for Fc1cccc2ncnc(OCc3ccccc3)c12 ? N

Hi team, can someone confirm the assay call for CC(=O)N1CCCc2cc(S(=O)(=O)N3CCCC(C(=O)N4CCN(c5cccc(Cl)c5)CC4)C3)ccc21 (stereo not given) ? Y

Hi team, can someone confirm the assay call for Clc1cccc2c1C1CC2CCN1Cc1ccccc1 (stereo not given) ? N

###

# Study System: Galanin receptor type 3 (Homo sapiens) (UniProt O60755)
# Experimental Protocol: GalR3 antagonists in HEK293 cells, primary screen, cell-based, fluorescence readout (AID 651719);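 also: forskolin and galanin both at EC90 stimulate the cells; cAMP rise reported by CNG channel membrane potential dye signal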
# Setup Conditions: HEK293 GalR3-CNG cAMP membrane potential fluorescence; at 3 µM; galR3 body fused to GalR1 C-terminus
Screen size: about 360,000 compounds; about 1,600 (0.44%) were called active.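 Rule for the calls: active = inhibition above the screen-wide average plus 3 SD (cut at about 13% in these data); inactive = the rest.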 This is one part of a sample in which actives are shown more often than they occur.
Just give me one of these, please: active, inactive

Here's what some known entries look like.
INSERT INTO assay_data (compound, class_label) VALUES
  ('Cn1cnc([N+](=O)[O-])c1Nc1ccccc1O', 'active'),
  ('CN1C(=O)C(Br)(Br)CC1c1cccnc1 (stereo unspecified)', 'inactive'),
  ('COc1ccccc1CCn1cnc(-c2ccccc2)c1C(C)C', 'inactive');

Hi team, can someone confirm the assay call for COCc1[nH]nc2c1C(c1ccccc1)N(c1ccccc1)C2=O (stereo unspecified) ? inactive

Hi team, can someone confirm the assay call for COC(=O)[C@]12C[C@H](CC(=O)NCc3ccc(OC)c(OC)c3)C(=O)N(Cc3ccccc3)C1=C[C@H](C(C)C)O[C@@H]2C1CC1 ? inactive

Hi team, can someone confirm the assay call for COC(=O)c1cc2c(c3c4ccccc4n(S(=O)(=O)c4cccc(C)c4)c13)C(=O)N(Cc1ccccc1)C2 ? inactive

Hi team, can someone confirm the assay call for Cc1ccc2nc(-c3ccc(CN4CCC(n5cc(-c6ccccc6)[nH]c5=O)CC4)cc3)c(-c3ccccc3)nc2c1 ? inactive

Hi team, can someone confirm the assay call for COC(=O)C1=C(C)NC(=S)NC1c1ccc(OC)cc1 (stereo unspecified) ? inactive

Hi team, can someone confirm the assay call for Nc1ccn([C@@H]2O[C@H](C(=O)N[C@H]3CCCCNC3=O)[C@@H](O)[C@H]2O)c(=O)n1 ? inactive

Hi team, can someone confirm the assay call for Cc1c(C(=O)NCCCc2ccccc2)cccc1[N+](=O)[O-] ? inactive

Hi team, can someone confirm the assay call for CCOC(=O)/C=C/c1ccccc1O ? inactive

Hi team, can someone confirm the assay call for O=C(O)Cn1c(Cc2ccccc2)nc2ccccc21 ? inactive

Hi team, can someone confirm the assay call for COc1cc2c(cc1OC)CN(C(=O)c1cc(S(=O)(=O)N3CCCCC3)ccc1Cl)CC2 ? inactive

Hi team, can someone confirm the assay call for COC(=O)[C@]12C[C@H](CC(=O)NCCCCc3ccccc3)C(=O)N(Cc3ccc4c(c3)OCO4)C1=C[C@H](C(C)(C)C)O[C@@H]2C ? inactive

Hi team, can someone confirm the assay call for Cc1c(C=O)c2ccccc2n1CCOc1ccccc1 ? inactive

Hi team, can someone confirm the assay call for Cc1nnc(SCC(=O)NNC(=O)c2ccc(Cl)cc2)n1CC1CCCO1 (stereo unspecified) ? inactive

Hi team, can someone confirm the assay call for CCCN1Cc2cccc(C(=O)NCc3ccccc3)c2C1=O ? inactive

Hi team, can someone confirm the assay call for O=C(O)Cn1cnc2c(NCc3ccccc3)ncnc21 ? inactive

Hi team, can someone confirm the assay call for COC(=O)c1c(-c2ccc(OC)cc2)c2c(c3c4ccccc4n(S(=O)(=O)c4ccc(C)cc4)c13)C(=O)N(C)C2 ? inactive

Hi team, can someone confirm the assay call for O=C(CSc1nnc(-c2ccco2)n1CC1CCCO1)c1ccccc1 (stereo unspecified) ? inactive

Hi team, can someone confirm the assay call for CC(=O)N1C[C@@H](CO)[C@@H](N(C)C(=O)C(C)(C)C)C[C@H]1c1ccccc1Br ? inactive
